Measured GI50 by item
# Test system: IGROV-1
# protocol_details: NCI tumour cell line growth inhibition, 48 h
Activity calls are given as the source filed them. Cut-off read from the data, not from the text of the source: active = GI50 up to about 1.1 µM and inactive = higher.

compound	GI50
COc1cccc(-c2cc(O)c3cc(OC)c(OC)cc3n2)c1	89.3 µM (inactive)
CCOC(=O)C1=C(C)N(NC(N)=O)C2(O)CCCC(=O)C12C (configuration not stated)	> 100 µM (inactive)
O=C1c2ccccc2C(=O)c2c1ccc1c2OCO1	> 100 µM (inactive)
FC(F)(F)c1nc2ccc(SSc3ccc4nc(C(F)(F)F)[nH]c4c3)cc2[nH]1	> 10 µM (inactive)
c1ccc2c(c1)nc1n2CCCn2ccnc2-1	> 100 µM (inactive)
CCCN1C(=O)/C(=C\c2ccc(OC)c(OC)c2)S/C1=N\c1ccccc1	> 100 µM (inactive)
c1ccc2c(c1)Cn1c-2nc2ccccc21	> 100 µM (inactive)
CC(=O)[C@@H]1C/C(=C\OCc2ccccc2)O[C@H]1C	> 100 µM (inactive)
Cc1cc(C)nc(NS(=O)(=O)c2ccc(NNc3c4ccccc4nc4c(C(=O)Nc5ccc(S(=O)(=O)Nc6cc(C)on6)cc5)cccc34)cc2)n1	29 µM (inactive)
Cc1cc(N(CCOS(C)(=O)=O)CCOS(C)(=O)=O)ccc1C=O	11.7 µM (inactive)
N#CC(C(=O)C(N)=O)c1ccccc1Cl (configuration not stated)	> 100 µM (inactive)
CCC(C)(C)C(=O)O[C@H]1C[C@@H](C)C=C2C=C[C@H](C)[C@H](CC[C@@H]3C[C@@H](O)CC(=O)O3)[C@H]21	0.647 µM (active)

###

# Test system: ACHN
# protocol_details: NCI tumour cell line growth inhibition, 48 h
Activity calls are given as the source filed them. Cut-off read from the data, not from the text of the source: active = GI50 up to about 1.1 µM and inactive = higher.
readout_label: GI50

molecule	test_system	recorded_result
COc1ccc(-c2nc3cc(F)ccc3s2)cc1O	ACHN	28.7 µM (inactive)
O=C1NC(=O)C2C(=O)NC(=O)C1C2(c1ccccc1)c1cc[nH]c1 (stereo not drawn)	ACHN	> 100 µM (inactive)
Cc1nn(-c2ccccc2)c2nc3c(c(C)nn3-c3ccccc3)c(-c3ccccc3Br)c12	ACHN	> 100 µM (inactive)

###

Here we list compounds with their recorded GI50 when tested on HCT-15.

compound	test_system	GI50
N#Cc1c(O)c2ccccc2[nH]c1=O	HCT-15	> 100 µM
O=C(CN(Cc1ccccc1)Cc1ccccc1)N1CCc2c([nH]c3ccccc23)C1c1cccnc1 (centres undefined)	HCT-15	5.64 µM
O=C1CC(c2cccc(F)c2)Nc2cc3c(cc21)OCO3 (centres undefined)	HCT-15	0.0394 µM
O=C(Nc1nc(C23CC4CC(CC(C4)C2)C3)cs1)c1cc2cc(Br)cc(Br)c2oc1=O	HCT-15	> 100 µM
Cc1ccc(Cl)c2c(=O)c3ccc(N)cc3sc12	HCT-15	21.1 µM
CCOC(=O)/C(C(=O)c1ccccc1)=C1\N[C@H](C(=O)OCC)CS1	HCT-15	> 100 µM
CNS(=O)(=O)NNS(=O)(=O)c1ccc(OC)cc1	HCT-15	> 100 µM
C=C(C(=O)O[C@H]1C/C(C)=C/CC/C(CO)=C/[C@H]2C(=O)OC(=C)[C@H]12)C(O)CO (some centres undefined)	HCT-15	8.05 µM
O=[N+]([O-])c1cccc([N+](=O)[O-])c1Cl	HCT-15	12.1 µM
Cc1cc(C)nc(NS(=O)(=O)c2ccc(Nc3c4ccccc4nc4c(C(=O)Nc5ccc(S(=O)(=O)N=C(N)N)cc5)cccc34)cc2)n1	HCT-15	> 100 µM
O=C(/C=C/c1ccccc1)CC1OC(=O)c2ccccc21 (centres undefined)	HCT-15	> 100 µM
CCOC(=O)C1C/C(C)=C(/C)SCCCS1 (centres undefined)	HCT-15	> 100 µM
Nn1c(CCCCCCCCc2nnc(COc3ccc(Cl)cc3)n2N)nnc1COc1ccc(Cl)cc1	HCT-15	> 100 µM
CCOC(=O)CSc1nc(-c2ccc(Cl)cc2)c(C#N)c(=O)[nH]1	HCT-15	> 100 µM

###

# Test system: DU-145
# protocol_details: NCI tumour cell line growth inhibition, 48 h
Active and inactive are the calls of the source. Rule as the data show it: active = GI50 up to about 1.1 µM and inactive = higher.

molecule	test_system	GI50
Cc1ccc(Cl)c2c(=O)c3ccc(N)cc3sc12	DU-145	26.1 µM (inactive)
CC(=O)NCC1OC2COC(c3ccccc3)OC2C2N=C(c3ccccc3)OC12 (stereo not drawn)	DU-145	> 100 µM (inactive)
CCOC(=O)C1C(=O)C=C(c2cc(C)ccc2O)CC1c1cccc(Br)c1 (stereo not drawn)	DU-145	34.4 µM (inactive)

###

Measured GI50 by item
# System: RXF 393
# protocol_details: NCI tumour cell line growth inhibition, 48 h
Calls of active or inactive are those of the source. Rule as the data show it: active = GI50 up to about 1.1 µM and inactive = higher.

molecule	GI50
CC(C)NC(=O)OCc1c(COC(=O)NC(C)C)c(-c2ccc[n+](COC(=O)Cc3ccccc3)c2)n2c1CCC2	23 µM (inactive)
Nc1c(S(=O)(=O)O)cc2cc(S(=O)(=O)O)ccc2c1/N=N/c1ccc(-c2ccc(/N=N/c3c(N)c(S(=O)(=O)O)cc4cc(S(=O)(=O)O)ccc34)c(S(=O)(=O)O)c2)cc1	> 100 µM (inactive)
CCCC1N2CCCCC2[C@@H]2c3[nH]c4ccccc4c3CCN12 (stereo partly specified)	> 100 µM (inactive)
O=C1CCCC2=C1CC1=C(CCCC1=O)N2c1cccc2ccccc12	10.9 µM (inactive)
O=C(OCC1CCCN2CCCCC12)c1ccncc1 (stereo unspecified)	> 100 µM (inactive)
Nc1nc(N)c(N=O)c(OCC2CCCCC2)n1	7.1 µM (inactive)

###

# System: HCC 2998
# protocol_details: NCI tumour cell line growth inhibition, 48 h
Calls of active or inactive are those of the source. Rule as the data show it: active = GI50 up to about 1.1 µM and inactive = higher.
Classes used: active, inactive

compound	assigned_label
CC(=O)CC1CCC(=O)CCC(=O)OC(CC(C)=O)CCC(=O)CCC(=O)O1 (stereo not given)	inactive
c1ccc(Nc2nnc(Cn3ccc4ccccc43)s2)cc1	inactive
CCOC(=O)NN(C(=O)OCC)C(C(=O)C1=CCCCC1)N(NC(=O)OCC)C(=O)OCC	inactive
Nc1nc(Cl)c2nnn(CC3CCC(CO)C3)c2n1 (stereo not given)	inactive
Cc1ccc2c(=O)cc(-c3cccc(F)c3)[nH]c2n1	active

###

# Test system: HL-60
# protocol_details: NCI tumour cell line growth inhibition, 48 h
Activity calls are given as the source filed them. No stated cut-off is given here; in the data, active = GI50 up to about 1.1 µM and inactive = higher.
Classes used: Y (active), N (inactive)

molecule	assigned_label
CN(C)P(=O)(Oc1ccc(CC(NC(=O)OCc2ccccc2)C(=O)OCc2ccccc2)cc1)N(C)C (centres undefined)	N
CNS(=O)(=O)NNS(=O)(=O)c1ccc(OC)cc1	N
COCCN1C2=CCCCC2=Nc2c1nc(N)[nH]c2=O	N
CSc1nc(SC)c2cnn(CC3CO3)c2n1 (centres undefined)	N
CC1CC(c2ccc(Cl)cc2)=Nc2ccccc2S1 (centres undefined)	N
CCNc1nc(N)c(C(=O)c2cccs2)s1	N
O=C(/C=C/c1ccccc1)CC1OC(=O)c2ccccc21 (centres undefined)	N
Cc1cccc(-c2cc(O)c3cccnc3n2)c1	Y
O=C1c2ccccc2C(=O)c2c1ccc1c2OCO1	N

###

# System: DU-145
# protocol_details: NCI tumour cell line growth inhibition, 48 h
Active and inactive are the calls of the source. No stated cut-off is given here; in the data, active = GI50 up to about 1.1 µM and inactive = higher.
Classes used: class 1 for active, class 0 for inactive

molecule	test_system	assigned_label
O=C1Nc2ccccc2/C1=C/c1c(Cl)[nH]c2ccc(O)cc12	DU-145	class 0
Cc1cccc(/C=N/NC(=S)N2CCCC2)n1	DU-145	class 1
Nc1nc(CCl)nc(N2CCOCC2)n1	DU-145	class 0
CC1=CC2(O)OC3(CC2=C(C)C)C(C)CCC13 (stereo unspecified)	DU-145	class 0
C[N+]1(C)CCOC(O)(c2ccccc2)C1 (stereo unspecified)	DU-145	class 0
CCOC(=O)NC(N(C)C(C(C)C)P(=O)(OCC)OCC)(C(F)(F)F)C(F)(F)F (stereo unspecified)	DU-145	class 0
CSC1=C(C)S/C(=C\c2ccc(/C=C3\SC(C)=C(SC)S3)cc2)S1	DU-145	class 0
CSc1nc(NC2OC(COC(C)=O)C(OC(C)=O)C(OC(C)=O)C2OC(C)=O)c(/N=C\C=N/c2c(NC3OC(COC(C)=O)C(OC(C)=O)C(OC(C)=O)C3OC(C)=O)nc(SC)n(C)c2=O)c(=O)n1C (stereo unspecified)	DU-145	class 0
N#Cc1c(N)nc(Sc2ccccc2N)c(C#N)c1-c1ccc(Cl)cc1	DU-145	class 0
CCc1nc(N)nc(N)c1-c1ccc(Cl)c([N+](=O)[O-])c1	DU-145	class 1
O=C(O)c1ccccc1CC1Cc2ccccc2C1	DU-145	class 0

###

Measured GI50 by item
# System: NCI-H522
# protocol_details: NCI tumour cell line growth inhibition, 48 h
Calls of active or inactive are those of the source. Cut-off read from the data, not from the text of the source: active = GI50 up to about 1.1 µM and inactive = higher.
readout_label: GI50

compound	recorded_result
O=C1C2=C(SCCS2)C(=O)c2ccccc21	1.76 µM (inactive)
CC(=O)CC1CCC(=O)CCC(=O)OC(CC(C)=O)CCC(=O)CCC(=O)O1 (stereo not given)	> 100 µM (inactive)
COC(=O)c1ccc2c(c1)CC1(C2)Cc2cc3c(c(C(=O)OC)c2C1)CCCC3 (stereo not given)	> 100 µM (inactive)
Cc1ccc(S(=O)(=O)N[C@H](C(=O)O)c2ccccc2)cc1	> 100 µM (inactive)
O=C(NC12CC3CC(CC(C3)C1)C2)n1cnc2cncnc21	16.1 µM (inactive)
N#Cc1cc([N+](=O)[O-])ccc1NC(=O)C(=O)C(C(=O)/C=C/c1ccccc1)C1OC(=O)c2ccccc21 (stereo not given)	> 100 µM (inactive)
Fc1cc(-c2ncc(Cl)cc2Cl)c2cccccc1-2	> 100 µM (inactive)
COC(=O)[C@H](CCSC)NC(=O)c1ccc(CNC(=O)/C=C/c2cccc(Oc3ccccc3)c2)cc1	25.8 µM (inactive)
CCOC(=O)/C(C(=O)c1ccccc1)=C1\N[C@H](C(=O)OCC)CS1	> 100 µM (inactive)
O=[N+]([O-])c1ccc2c(c1)n1c(N3CCCC3)[n+]3ccccc3c1c1c3ccccn3c(N3CCCC3)[n+]21.[O-][Cl+3]([O-])([O-])[O-].[O-][Cl+3]([O-])([O-])[O-]	29 µM (inactive)
Cc1ccc(C)n1-n1c(-c2ccccc2)n[nH]c1=O	> 100 µM (inactive)
O=C1OC(CCCN2CCCCC2)(c2ccccc2)CC12CCCC2 (stereo not given)	> 100 µM (inactive)
N#Cc1c(O)c2ccccc2[nH]c1=O	> 100 µM (inactive)
COCC(=O)CP(=O)(OC)OC	> 100 µM (inactive)
OCC1OC(O[C@H]2CN3[C@H](O)[C@@H](O)[C@H](O)[C@H]3C2O)C(O)C(O)C1O (stereo not given in full)	> 100 µM (inactive)
COC(=O)CC1c2ccccc2N2C(=O)Cc3c([nH]c4ccccc34)C12 (stereo not given)	> 100 µM (inactive)
CCOC(=O)c1c(SCCN2CCCC2)n(-c2ccccc2)c(=S)n(-c2ccccc2)c1=O	1.77 µM (inactive)
O=[N+]([O-])c1cccc([N+](=O)[O-])c1Cl	12.6 µM (inactive)
O=C(Nc1nc(C23CC4CC(CC(C4)C2)C3)cs1)c1cc2cc(Br)cc(Br)c2oc1=O	> 100 µM (inactive)
COc1cc2c(cc1OCCCOS(C)(=O)=O)N=C[C@@H]1CCCN1C2=O	> 100 µM (inactive)
CCOc1ccc(N2C(=O)NC3(c4ccccc4)N(C)C(=O)N(C)C23c2ccccc2)cc1 (stereo not given)	33.9 µM (inactive)
Cn1c(N)c(/C=N/NC(=O)CC#N)c(=O)n(C)c1=O	> 100 µM (inactive)
CCOC(=O)/C(C(=S)Nc1ccccc1)=C(/N)N1CCCC1	> 100 µM (inactive)
COC1OC(OC)C2C(c3c(C)cc(C)cc3C)=NOC12 (stereo not given)	> 100 µM (inactive)
CC1CC(c2ccc(Cl)cc2)=Nc2ccccc2S1 (stereo not given)	> 100 µM (inactive)
CC1(c2sccc2Cl)CC(c2sccc2Cl)=C(C#N)C(=C(C#N)C#N)N1 (stereo not given)	19.1 µM (inactive)
Nc1nc(Cl)cc(NCC2(CO)CCC2)n1	> 100 µM (inactive)
[N-]=[N+]=NC1CC(n2ccc(N)nc2=O)OC1COP(=O)(O)OP(=O)(O)OP(=O)(O)O (stereo not given)	> 100 µM (inactive)
CC(=O)NC(c1nc2cc(C)c(C)cc2[nH]1)c1nc2cc(C)c(C)cc2[nH]1	5.12 µM (inactive)
c1ccc(SC2(Sc3ccccc3)CCCC2)cc1	> 100 µM (inactive)
O=C(NN1C(=O)C(Cl)C1c1ccc([N+](=O)[O-])cc1)c1ccccc1O (stereo not given)	> 100 µM (inactive)
O=C1CC[C@H]2CNC(=O)C[C@H]2C1	> 100 µM (inactive)
O=c1oc2c(ccc3ccccc32)cc1C1=CSC2=NCCN12	30.3 µM (inactive)
O=c1cccccc1NCCCCCCCCCNc1cccccc1=O	13.9 µM (inactive)
CCOC(=O)CSc1nc(-c2ccc(Cl)cc2)c(C#N)c(=O)[nH]1	58.5 µM (inactive)
C/C(=N/NC(=O)C[N+](C)(C)C)C(CN(C)C)C(=O)Nc1ccccc1 (stereo not given)	> 100 µM (inactive)
O=C(O)c1ccccc1CC1Cc2ccccc2C1	> 100 µM (inactive)
CC(NC1=NCCO1)c1ccccc1Cl (stereo not given)	> 100 µM (inactive)
COC(=O)/C=C/c1ccc2c(c1)[C@H](C(=O)OC)[C@@H](c1ccc(O)cc1)O2	21.4 µM (inactive)
N#CC(C#N)c1ccc(C(=O)N2CCC[C@H]2CO)cc1	> 100 µM (inactive)
